# Test system: Vero
# protocol.text: Cytotoxicity against african green monkey Vero cells by neutral red assay up to 25 ug/mL
# Type: cell-based
# experimental.setup: chlorocebus sabaeus
measured.endpoint: Activity

Give Vero Activity for `CC(C)CC(=O)c1c(O)c(C=O)c2c(c1O)C[C@H]1C[C@H]3C[C@H](C3(C)C)[C@@]1(CO)O2`
Not Active

Give Vero Activity for `CC(C)CC(=O)c1c(O)c2c(c(C(=O)CC(C)C)c1O)O[C@@]1(C)[C@H](CC[C@H]3[C@@H]1C3(C)C)C2`
Not Active

Give Vero Activity for `CC(C)CC(=O)c1c(O)c2c(c(C(=O)CC(C)C)c1O)O[C@]1(CC2)CC[C@@H]2C[C@H]1C2(C)C`
Not Active

Give Vero Activity for `CC(C)CC(=O)c1c(O)c(C=O)c(O)c2c1O[C@@]1(C)[C@H](CC[C@H]3[C@@H]1C3(C)C)C2`
Not Active
